Values from patent US20130004588A1

- Test system: trypsin
- METHOD: EnzChek trypsin inhibition assay, mixtures of talc with divalent cation salts (Example 3)
- Format: biochemical
- CONDITION SET: Table 3; all tested materials at 0.1% (g/mL)
OUTCOME MEASURE: With Talc trypsin inhibition activities (%)

Example compounds with recorded With Talc trypsin inhibition activities (%):
O.O.O.O.[Cl][Fe][Cl] [Iron (II) chloride tetrahydrate] :: 64.53%
[Ca+2].[Cl-].[Cl-] [Calcium chloride] :: 26.43%
[Cl-].[Cl-].[Mg+2] [Magnesium chloride] :: 20.05%

Exercise: Please report the recorded With Talc trypsin inhibition activities (%) for CC(=O)[O-].CC(=O)[O-].O.O.O.O.[Mg+2] [Magnesium acetate tetrahydrate] .
Key: 17.83%

Exercise: Please report the recorded With Talc trypsin inhibition activities (%) for [Cl-].[Cl-].[Zn+2] [Zinc chloride] .
Key: 77.96%

Exercise: Please report the recorded With Talc trypsin inhibition activities (%) for CC(=O)[O-].CC(=O)[O-].O.[Ca+2] [Calcium acetate monohydrate] .
Key: 24.6%

Exercise: Please report the recorded With Talc trypsin inhibition activities (%) for CC(=O)[O-].CC(=O)[O-].[Zn+2] [Zinc acetate dihydrate] .
Key: 60.18%
